target: Induced myeloid leukemia cell differentiation protein Mcl-1 (Homo sapiens) (UniProt Q07820); assay: disruptors of Mcl-1 and Bid BH3 peptide – biochemical, TR-FRET, 1536-well, primary screen (AID 1021); settings: TR-FRET Mcl-1/Bid-Dy647 peptide binding, at 21.7 µM, hits give high values;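 further: His-tagged Mcl-1 with europium anti-His antibody binding Bid BH3 peptide; 0% = Mcl-1 plus peptide wells and 100% = peptide-only wells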
Sequence (Q07820 whole entry, looked up): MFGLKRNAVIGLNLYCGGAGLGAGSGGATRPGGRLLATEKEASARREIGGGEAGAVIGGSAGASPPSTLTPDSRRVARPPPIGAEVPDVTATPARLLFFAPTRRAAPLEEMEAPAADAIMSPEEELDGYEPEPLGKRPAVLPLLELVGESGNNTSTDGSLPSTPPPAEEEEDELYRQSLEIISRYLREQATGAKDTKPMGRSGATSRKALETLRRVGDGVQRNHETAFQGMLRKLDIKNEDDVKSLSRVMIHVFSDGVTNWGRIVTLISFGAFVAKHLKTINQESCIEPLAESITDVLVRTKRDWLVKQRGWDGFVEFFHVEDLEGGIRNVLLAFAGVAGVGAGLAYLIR
In all, about 220,000 compounds went through this assay and about 2,100 (0.95%) were called active. The sample holds actives, similar compounds and a random draw of the others, so the mix is not that of the screen.
Parameter: inhibition. Scope: all listed entries.
I only need the number, in %, no unit after it.

- MOLECULE: "CCOC(=O)CNC(=O)CSc1nnc(-c2cccc(OC)c2)n1CC"
  OBSERVABLE: "inhibition"
  OUTPUT_UNIT: "%"
  VALUE_MEASURED: -3.85
- MOLECULE: "O=C(C(NS(=O)(=O)c1cccc2nsnc12)c1ccccc1)N1CCN(c2ccccc2)CC1 (centres undefined)"
  OBSERVABLE: "inhibition"
  OUTPUT_UNIT: "%"
  VALUE_MEASURED: -29.6
- MOLECULE: "O=C(NC1CC1)c1ccc2c(c1)NC(=O)c1ccccc1S2"
  OBSERVABLE: "inhibition"
  OUTPUT_UNIT: "%"
  VALUE_MEASURED: -30.3
- MOLECULE: "O=C(O)C(NS(=O)(=O)c1cccc2nsnc12)c1ccccc1 (centres undefined)"
  OBSERVABLE: "inhibition"
  OUTPUT_UNIT: "%"
  VALUE_MEASURED: -3.92
- MOLECULE: "COc1ccc2[nH]c(=S)cc(C)c2c1"
  OBSERVABLE: "inhibition"
  OUTPUT_UNIT: "%"
  VALUE_MEASURED: -43.7
- MOLECULE: "O=C(O)CC1S/C(=N\\N=C/c2ccccc2O)N(c2ccc(O)cc2)C1=O (centres undefined)"
  OBSERVABLE: "inhibition"
  OUTPUT_UNIT: "%"
  VALUE_MEASURED: -24.9
- MOLECULE: "CC1(C)OC(=O)N2CCc3ccccc3C21C (centres undefined)"
  OBSERVABLE: "inhibition"
  OUTPUT_UNIT: "%"
  VALUE_MEASURED: 6.73
- MOLECULE: "CCCCN1Cc2c(nc3cc(-c4ccccc4)[nH]n3c2=O)C1=O"
  OBSERVABLE: "inhibition"
  OUTPUT_UNIT: "%"
  VALUE_MEASURED: -37.8
- MOLECULE: "CCOC(=O)C(NC(=O)CC(C)C)(Nc1sc2c(c1C(N)=O)CCCC2)C(F)(F)F (centres undefined)"
  OBSERVABLE: "inhibition"
  OUTPUT_UNIT: "%"
  VALUE_MEASURED: -1.21
- MOLECULE: "O=c1[nH]nc(SCCS(=O)(=O)c2ccc(F)cc2)n1-c1ccccc1C(F)(F)F"
  OBSERVABLE: "inhibition"
  OUTPUT_UNIT: "%"
  VALUE_MEASURED: -37.5

Reported inhibition for C/C(=N\Nc1cccc(C(=O)O)c1)c1ccc2c(c1)Nc1ccccc1S2 was 92

Reported inhibition for O=C(O)CCc1cccnc1 was -29.9

Reported inhibition for CCOC(=O)c1cn(CC)c2cc(F)c(F)cc2c1=O was -8.08

Reported inhibition for S=C(NNC(=S)NC1CC2C=CC1C2)NC1CC2C=CC1C2 (centres undefined) was -96.2
